The reported measurements were obtained from paper PMC8245906.

assay: Pharmacokinetics and oral bioavailability of GS-441524 in CD-1 mice; type: in vivo; conditions: male, CD-1, mouse, plasma, iv, 5 mg/kg
readout name: Tmax (min)
Answers are plain numbers, in min.

Exercise: Would you kindly share the measured Tmax for N#C[C@@]1(c2ccc3c(N)ncnn23)O[C@H](CO)[C@@H](O)[C@H]1O [GS-441524] ?
Key: 4.98

* * *

test: Pharmacokinetics and oral bioavailability of GS-441524 in CD-1 mice; format: in vivo; details: male, CD-1, mouse, plasma, iv, 5 mg/kg, AUC0‒∞, iv 5 mg/kg, CD-1 mice
readout name: AUC (µM·h)
One number for each entry, in µM·h.

Exercise: Would you kindly share the measured AUC for `N#C[C@@]1(c2ccc3c(N)ncnn23)O[C@H](CO)[C@@H](O)[C@H]1O` ?
Key: 14.8

* * *

Would you mind telling me the reported microsomal CLint at 1 μmol/L of each entry?
experiment: Microsomal stability in human liver microsomes; type: in vitro ADME; conditions: human, liver microsomes, pH 7.4
Give bare numbers, in µL/min/mg.

{"columns": ["compound", "measurement unit", "microsomal CLint at 1 μmol/L"],
 "data": [
  ["CCC(CC)COC(=O)[C@H](C)N[P@](=O)(OC[C@H]1O[C@@](C#N)(c2ccc3c(N)ncnn23)[C@H](O)[C@@H]1O)Oc1ccccc1 [RDV, Remdesivir]", "µL/min/mg", 1260]
]}

Turning now to a further compound:
Exercise: Would you kindly share the measured microsomal CLint at 1 μmol/L for N#C[C@@]1(c2ccc3c(N)ncnn23)O[C@H](CO)[C@@H](O)[C@H]1O [GS-441524] ?
Key: 1.9

* * *

assay: Microsomal stability in CD-1 mice liver microsomes; format: in vitro ADME; details: CD-1, mouse, liver microsomes, pH 7.4
readout name: microsomal CLint at 1 μmol/L (µL/min/mg)
One number for each entry, in µL/min/mg.

Provide microsomal CLint at 1 μmol/L for all items below, preserving their order.
1. N#C[C@@]1(c2ccc3c(N)ncnn23)O[C@H](CO)[C@@H](O)[C@H]1O
2. CCC(CC)COC(=O)[C@H](C)N[P@](=O)(OC[C@H]1O[C@@](C#N)(c2ccc3c(N)ncnn23)[C@H](O)[C@@H]1O)Oc1ccccc1

Key:
1. 1.7
2. 1680

* * *

assay: Pharmacokinetics and oral bioavailability of GS-441524 in CD-1 mice; type: in vivo; details: male, CD-1, mouse, plasma, po, 10 mg/kg
readout name: half-life (h)
One number for each entry, in h.

Exercise: Would you kindly share the measured half-life for `N#C[C@@]1(c2ccc3c(N)ncnn23)O[C@H](CO)[C@@H](O)[C@H]1O` ?
Key: 2.9

* * *

test: Pharmacokinetics and oral bioavailability of GS-441524 in CD-1 mice; format: in vivo; conditions: male, CD-1, mouse, plasma, po, 10 mg/kg, AUC0‒∞, po 10 mg/kg, CD-1 mice
readout name: AUC
Number first, unit second: that is the form wanted.

Exercise: Would you kindly share the measured AUC for N#C[C@@]1(c2ccc3c(N)ncnn23)O[C@H](CO)[C@@H](O)[C@H]1O [GS-441524] ?
Key: 16.8 µM·h

* * *

test: Pharmacokinetics and oral bioavailability of GS-441524 in CD-1 mice; format: in vivo; conditions: po 10 mg/kg, CD-1 mice, plasma; 10 mg/kg
readout name: Cmax (µM)
Numbers only, in µM.

Exercise: Would you kindly share the measured Cmax for N#C[C@@]1(c2ccc3c(N)ncnn23)O[C@H](CO)[C@@H](O)[C@H]1O [GS-441524] ?
Key: 3.28
